Target: T1, mouse IL-2Rγ (mouse, UniProt P34902 23-263)
T1 construct: also called mo IL-2R
T1 sequence (looked up): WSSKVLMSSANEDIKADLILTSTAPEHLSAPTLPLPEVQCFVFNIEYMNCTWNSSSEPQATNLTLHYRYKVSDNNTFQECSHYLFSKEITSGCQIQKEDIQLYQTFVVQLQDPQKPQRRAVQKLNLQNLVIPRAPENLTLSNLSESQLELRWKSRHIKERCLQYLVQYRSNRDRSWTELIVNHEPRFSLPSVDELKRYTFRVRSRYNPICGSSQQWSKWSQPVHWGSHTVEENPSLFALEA
Test: SPR off-rate ranking, periplasmic extract on immobilised protein
I'd appreciate it if you could supply koff values for the items below.
One number for each entry, in s⁻¹.

binder	koff [s⁻¹]
28-MP04D02 (VHH, VHH in periplasmic extract; also called FJ1427_P035MP04D02; clone nr; 300) VHH: QVQLVESGGGLVQAGGSLRLSCAASGRTLSRYAMGWFRQAPGKEREFVTANSWGGDTYYADSVQGRFTFSRDNAKNTVYLQMNSLQPEDTAVYYCAAAPTSFATTAYSGSNSYAYWGQGTQVTVSS	0.319
FJ1427_P035MP04G04 (VHH, VHH in periplasmic extract; also called clone nr) VHH: QVQLVESGGGLVQAGGSLRLSCAASGRTLSRYAVGWFRQAPGKEREFVTANSWGGDTFYADSVQGRFTFSRDNAKNTVYLQMNSLLPEDAAVYYCAAAPTSFATTAYSSSNSYKVWGQGTQVTVSS	0.0666
FJ1427_P035MP04H01 (VHH, VHH in periplasmic extract; also called clone nr) VHH: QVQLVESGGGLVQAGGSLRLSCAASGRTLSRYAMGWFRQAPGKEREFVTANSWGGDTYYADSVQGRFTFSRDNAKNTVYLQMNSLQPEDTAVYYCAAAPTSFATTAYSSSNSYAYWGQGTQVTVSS	0.104

Please look at the following binder next.
Indicate the recorded koff value for this binder: FJ1427_P035MP04F07 (VHH, VHH in periplasmic extract; also called clone nr) VHH: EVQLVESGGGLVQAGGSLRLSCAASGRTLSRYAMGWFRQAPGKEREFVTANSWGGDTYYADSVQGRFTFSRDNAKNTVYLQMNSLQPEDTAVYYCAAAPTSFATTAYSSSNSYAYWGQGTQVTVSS
0.156
